Collected Percent Effect values appear next to each entry.
biological target: Sialic acid-binding Ig-like lectin 9 (Homo sapiens) (UniProt Q9Y336); assay: Hs-Siglec9 ALPHAscreen SOP 20170721; parameters: scale not given: direction of the effect not stated beside the values; conditions: 10 µM
Sequence (Q9Y336 whole entry): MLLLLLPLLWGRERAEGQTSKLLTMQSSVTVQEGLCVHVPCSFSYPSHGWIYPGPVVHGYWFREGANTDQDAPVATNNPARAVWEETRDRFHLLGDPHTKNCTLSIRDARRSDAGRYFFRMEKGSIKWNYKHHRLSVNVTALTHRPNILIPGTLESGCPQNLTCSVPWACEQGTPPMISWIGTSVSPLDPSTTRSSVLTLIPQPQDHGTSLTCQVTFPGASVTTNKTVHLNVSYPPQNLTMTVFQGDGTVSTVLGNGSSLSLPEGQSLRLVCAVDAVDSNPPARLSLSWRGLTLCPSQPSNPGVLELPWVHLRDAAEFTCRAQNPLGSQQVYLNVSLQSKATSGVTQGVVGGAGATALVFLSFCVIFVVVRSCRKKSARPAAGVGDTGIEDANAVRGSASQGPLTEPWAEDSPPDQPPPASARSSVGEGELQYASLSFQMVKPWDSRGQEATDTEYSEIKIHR
I only need the number, in %, no unit after it.

Solved entries:
>  <compound>
CC(C)c1cc2c(O)nc(CSCC(=O)O)nc2s1

>  <unitsOfMeasure>
%

>  <valueObserved>
3.74

$$$$
>  <compound>
Cn1cc(N2CC3(CCN(CC4CCOCC4)CC3)OCC2=O)cn1

>  <unitsOfMeasure>
%

>  <valueObserved>
6.72

$$$$
>  <compound>
COc1ccc(CN(Cc2cccnc2)CC2CCCO2)c(OC)c1 (stereo not given)

>  <unitsOfMeasure>
%

>  <valueObserved>
2.14

$$$$
>  <compound>
CN1CCN(C(=O)c2cncc(CC3CCCN(C)C3)c2)CC1 (stereo not given)

>  <unitsOfMeasure>
%

>  <valueObserved>
12

$$$$
>  <compound>
Cc1ccc(C)c(NC(=O)Nc2c[nH]c(=O)[nH]c2=O)c1

>  <unitsOfMeasure>
%

>  <valueObserved>
-3.33

$$$$
>  <compound>
O=C(CCn1ccc2cc(Br)ccc21)NCc1ccc(C(=O)O)cc1

>  <unitsOfMeasure>
%

>  <valueObserved>
0.438

$$$$

Exercise: What does the record list as Percent Effect for O=C(c1n[nH]c(=O)c2ccccc12)N1CCCCC1c1ccn[nH]1 (stereo not given) ?
Key: -7.74

Exercise: Look at this compound and give its reported Percent Effect. `COCCC(=O)Nc1ccnc(Oc2ccccc2)c1`
Key: -14

Exercise: For the compound `O=C(Nc1ccccc1F)N(CCO)Cc1ccsc1` , what Percent Effect is on record?
Key: 1.32

Exercise: Returns the measured Percent Effect for the input compound. Input: `CC(C)c1nnc(NC(=O)NCc2ccnc(N(C)C)c2)s1`
Key: -0.716

Exercise: Look up Percent Effect for this compound: `O=C(C1=CCCC1)N1C[C@@H]2COC[C@]2(COc2cccnc2)C1`
Key: 5.37

Exercise: For the compound `CCN1C[C@H]2CCN(C(C)=O)CC[C@H]2S1(=O)=O` , what Percent Effect is on record?
Key: -0.534

Exercise: So what does the record say about Percent Effect for CC(C)c1nc(C2CCCN2C(=O)c2cnc[nH]2)no1 (stereo not given) ?
Key: 5.28

----------
target: Tyrosyl-tRNA synthetase, putative (Trypanosoma cruzi (strain CL Brener)) (UniProt Q4DSP6); assay: Trypanosoma cruzi tyrosyl tRNA synthetase (TcYRS) _High Tyrosine SOP; assay type: functional; design: scale not given: in the data most compounds retested in dose-response had high values; details: 30 µM
Sequence (Q4DSP6 as listed by the source): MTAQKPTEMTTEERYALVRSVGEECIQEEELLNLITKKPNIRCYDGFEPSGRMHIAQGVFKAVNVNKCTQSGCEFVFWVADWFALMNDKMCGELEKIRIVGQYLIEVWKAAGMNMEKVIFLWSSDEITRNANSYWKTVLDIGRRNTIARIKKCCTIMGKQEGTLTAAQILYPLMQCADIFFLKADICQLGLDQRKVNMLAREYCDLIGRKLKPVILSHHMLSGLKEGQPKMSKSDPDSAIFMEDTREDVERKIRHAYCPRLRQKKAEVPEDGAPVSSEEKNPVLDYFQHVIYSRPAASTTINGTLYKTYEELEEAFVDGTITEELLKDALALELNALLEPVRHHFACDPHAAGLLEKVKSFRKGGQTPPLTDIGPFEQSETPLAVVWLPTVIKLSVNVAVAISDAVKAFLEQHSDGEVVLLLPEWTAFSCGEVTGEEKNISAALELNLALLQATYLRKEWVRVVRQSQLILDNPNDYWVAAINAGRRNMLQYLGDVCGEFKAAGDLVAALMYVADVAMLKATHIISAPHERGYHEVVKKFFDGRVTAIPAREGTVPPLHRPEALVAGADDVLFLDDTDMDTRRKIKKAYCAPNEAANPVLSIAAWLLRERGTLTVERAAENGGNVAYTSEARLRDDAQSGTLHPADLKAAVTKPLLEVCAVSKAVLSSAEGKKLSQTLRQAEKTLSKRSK
measuredAttribute: Percent Effect (%)
Answer format: numeric, % implied, no suffix.

>  <compound>
CC(=O)N1CCC[C@H]1C(=O)NCCOc1cccc(Cl)c1

>  <valueObserved>
6.8

$$$$
>  <compound>
Cn1nc(C2CCCN(C(=O)CO)C2)cc1O (configuration not stated)

>  <valueObserved>
-6.45

$$$$
>  <compound>
CCc1noc(C2CCCCN2C(=O)c2ccoc2C)n1 (configuration not stated)

>  <valueObserved>
1.06

$$$$
>  <compound>
Cc1ccc(CNC(=O)CN2CCN(CC(O)C3CC3)CC2)cc1 (configuration not stated)

>  <valueObserved>
9.52

$$$$

Exercise: Enter reported Percent Effect observed with Tyrosyl-tRNA synthetase, putative (Trypanosoma cruzi (strain CL Brener)) (UniProt Q4DSP6) for CCNC(=O)c1ccoc1CN1c2ccccc2CC1C (configuration not stated)
Key: 4.17

Exercise: Item Cc1ccc(C(=O)N2CCC3(CC2)CC(c2ccccc2)C(=O)N3)cn1 (configuration not stated) with Tyrosyl-tRNA synthetase, putative (Trypanosoma cruzi (strain CL Brener)) (UniProt Q4DSP6) - Percent Effect?
Key: 1.04

Exercise: Reported Percent Effect for Tyrosyl-tRNA synthetase, putative (Trypanosoma cruzi (strain CL Brener)) (UniProt Q4DSP6), given Cc1cc(C)cc(OCCC(=O)N2CCOCC2c2ncon2)c1 (configuration not stated) ?
Key: 2.97

Exercise: Record lookup: for Tyrosyl-tRNA synthetase, putative (Trypanosoma cruzi (strain CL Brener)) (UniProt Q4DSP6), what Percent Effect belongs to COc1ccc(CN2CCc3ncnc(C4CCOC4)c3CC2)cc1 (configuration not stated) ?
Key: 0

Exercise: Find Percent Effect (Tyrosyl-tRNA synthetase, putative (Trypanosoma cruzi (strain CL Brener)) (UniProt Q4DSP6)) for the entry CCC(C)NC(=O)NCCCn1nc2ccccn2c1=O (configuration not stated)
Key: 1.48

Exercise: Return Percent Effect measured with Tyrosyl-tRNA synthetase, putative (Trypanosoma cruzi (strain CL Brener)) (UniProt Q4DSP6) given this compound: CN(C)C(=O)c1ccc2c(c1)N(C)C(CC(=O)NCCC(C)(C)C)CO2 (configuration not stated)
Key: 3.16

Exercise: Which Percent Effect is reported with Tyrosyl-tRNA synthetase, putative (Trypanosoma cruzi (strain CL Brener)) (UniProt Q4DSP6) for this entry: Cc1noc(C(C)C)c1C(=O)N1CCOCC1CC(=O)c1ccco1 (configuration not stated) ?
Key: -2.13

Exercise: Could you share what Percent Effect was measured for Cc1nc(CN2CCC(N(C)Cc3noc(C(C)C)n3)C2)cs1 (configuration not stated) , tested on Tyrosyl-tRNA synthetase, putative (Trypanosoma cruzi (strain CL Brener)) (UniProt Q4DSP6)?
Key: 4.3

----------
Recorded Percent Effect for the following compounds
Biological target: Ubiquitin-activating enzyme e1, putative (Leishmania donovani (strain BPK282A1))
Sequence (whole entry): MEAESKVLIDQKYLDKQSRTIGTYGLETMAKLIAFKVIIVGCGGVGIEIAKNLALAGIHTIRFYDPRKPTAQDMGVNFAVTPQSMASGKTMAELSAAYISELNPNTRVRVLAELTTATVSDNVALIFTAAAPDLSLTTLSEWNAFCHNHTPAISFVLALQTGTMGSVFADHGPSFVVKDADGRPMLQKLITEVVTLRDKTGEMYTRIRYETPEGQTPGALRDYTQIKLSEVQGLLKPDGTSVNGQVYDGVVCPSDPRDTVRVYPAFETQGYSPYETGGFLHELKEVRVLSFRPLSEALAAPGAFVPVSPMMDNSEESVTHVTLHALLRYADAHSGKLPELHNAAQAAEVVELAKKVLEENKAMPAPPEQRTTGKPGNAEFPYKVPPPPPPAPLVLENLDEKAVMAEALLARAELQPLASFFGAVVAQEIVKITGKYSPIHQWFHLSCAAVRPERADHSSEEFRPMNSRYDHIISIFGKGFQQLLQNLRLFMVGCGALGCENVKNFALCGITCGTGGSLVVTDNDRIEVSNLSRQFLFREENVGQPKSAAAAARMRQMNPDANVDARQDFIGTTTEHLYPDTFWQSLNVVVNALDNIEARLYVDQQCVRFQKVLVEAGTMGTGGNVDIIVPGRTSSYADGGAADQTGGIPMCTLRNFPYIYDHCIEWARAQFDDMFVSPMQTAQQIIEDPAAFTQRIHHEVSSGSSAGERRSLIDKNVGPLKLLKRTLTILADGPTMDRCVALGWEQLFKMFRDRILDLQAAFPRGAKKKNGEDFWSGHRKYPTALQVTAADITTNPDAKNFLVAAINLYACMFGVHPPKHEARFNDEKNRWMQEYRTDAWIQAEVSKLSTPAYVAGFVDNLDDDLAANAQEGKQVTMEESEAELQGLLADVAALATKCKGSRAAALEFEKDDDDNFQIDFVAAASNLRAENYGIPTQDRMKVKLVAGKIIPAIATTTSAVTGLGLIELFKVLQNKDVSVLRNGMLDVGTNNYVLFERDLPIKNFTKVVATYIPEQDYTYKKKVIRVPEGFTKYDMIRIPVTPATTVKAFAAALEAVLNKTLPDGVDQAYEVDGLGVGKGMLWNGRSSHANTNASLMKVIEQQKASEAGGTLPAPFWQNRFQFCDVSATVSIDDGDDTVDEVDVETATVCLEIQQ
Assay: Leishmania donovani Ubiquitin Activating Enzyme (LdE1)
Assay type: functional
Parameters: scale not given: direction of the effect not stated beside the values
Settings: 30 µM
Results with a measured potency or affinity are listed apart.
Report as a plain number; the unit % is understood.

Exercise: Which measured Percent Effect value corresponds to `CC(C)(C)c1cnc(CN2CCC(c3ccnn3CCO)CC2)o1` ?
Key: 2.53

Exercise: I am curious: what Percent Effect value has been reported for Cc1ncccc1CNCC1CCN(CC(O)c2ccccc2)CC1 (configuration not stated) ?
Key: 13.9

Exercise: What does the data say about its Percent Effect? Entry: Cc1csc(N2CCN(Cc3ccccn3)CC2C)n1 (configuration not stated)
Key: 5.48

Exercise: Name the reported Percent Effect value associated with the compound CCc1nccn1C1CCCN(C(=O)CCCNc2ncccn2)C1 (configuration not stated)
Key: 3.8

----------
# key: entry, value: Percent Effect
target: Chromo domain-containing protein 1 (Saccharomyces cerevisiae (strain ATCC 204508 / S288c) (Baker's yeast)) (UniProt P32657); assay: ScCHD-1 Enzyme Inhibition Assay; type: functional; set-up: scale not given: in the data most compounds retested in dose-response had high values; details: 30 µM
Sequence (P32657 whole entry, the tested form may be a part): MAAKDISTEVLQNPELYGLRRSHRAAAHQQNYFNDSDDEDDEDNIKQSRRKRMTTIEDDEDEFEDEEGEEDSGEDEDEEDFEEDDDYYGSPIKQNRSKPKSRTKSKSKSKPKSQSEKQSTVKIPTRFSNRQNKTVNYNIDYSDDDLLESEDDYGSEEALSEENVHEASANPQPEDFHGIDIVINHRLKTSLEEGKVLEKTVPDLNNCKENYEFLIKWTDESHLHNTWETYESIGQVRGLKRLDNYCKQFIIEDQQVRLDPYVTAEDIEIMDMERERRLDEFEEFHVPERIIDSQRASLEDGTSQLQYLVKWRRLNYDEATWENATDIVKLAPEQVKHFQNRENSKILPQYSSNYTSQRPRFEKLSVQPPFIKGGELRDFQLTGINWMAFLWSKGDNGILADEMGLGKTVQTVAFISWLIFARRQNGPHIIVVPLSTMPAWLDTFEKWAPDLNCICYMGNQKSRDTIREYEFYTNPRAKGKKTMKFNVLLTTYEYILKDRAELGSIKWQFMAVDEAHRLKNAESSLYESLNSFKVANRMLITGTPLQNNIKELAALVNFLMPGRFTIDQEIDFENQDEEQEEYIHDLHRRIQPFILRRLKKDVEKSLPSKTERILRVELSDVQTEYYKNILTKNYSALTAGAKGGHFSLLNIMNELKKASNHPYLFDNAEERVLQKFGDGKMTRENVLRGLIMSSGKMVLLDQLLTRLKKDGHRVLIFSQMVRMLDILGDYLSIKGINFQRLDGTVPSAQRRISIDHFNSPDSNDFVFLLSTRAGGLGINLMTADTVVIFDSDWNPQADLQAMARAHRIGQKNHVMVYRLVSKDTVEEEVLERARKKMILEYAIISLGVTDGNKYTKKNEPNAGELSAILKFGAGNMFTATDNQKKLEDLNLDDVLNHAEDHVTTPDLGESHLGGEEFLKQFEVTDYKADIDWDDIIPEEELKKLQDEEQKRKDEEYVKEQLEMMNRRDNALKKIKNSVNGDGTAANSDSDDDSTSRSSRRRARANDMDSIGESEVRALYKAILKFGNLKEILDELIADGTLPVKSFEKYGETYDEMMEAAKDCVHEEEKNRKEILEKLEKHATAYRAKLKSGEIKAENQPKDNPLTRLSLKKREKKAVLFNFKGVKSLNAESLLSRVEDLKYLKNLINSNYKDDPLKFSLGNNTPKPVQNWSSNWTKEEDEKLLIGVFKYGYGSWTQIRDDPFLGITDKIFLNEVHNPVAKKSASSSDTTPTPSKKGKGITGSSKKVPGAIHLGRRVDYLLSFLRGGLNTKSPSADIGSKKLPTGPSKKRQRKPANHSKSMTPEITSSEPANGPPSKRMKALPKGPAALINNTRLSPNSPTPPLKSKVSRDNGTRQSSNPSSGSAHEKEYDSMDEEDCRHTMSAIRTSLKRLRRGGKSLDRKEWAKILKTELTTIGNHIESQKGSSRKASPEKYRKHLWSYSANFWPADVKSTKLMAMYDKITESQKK
Could you give me the number in %? Just the number is fine.

Some compounds with recorded Percent Effect:
>  <compound>
CN(C)CCNC(=O)CNC(=O)N1CCc2c([nH]c3ccc(Cl)cc23)C1

>  <Percent Effect (%)>
-0.829

$$$$
>  <compound>
Cc1ccsc1CN(CCN(C)C)Cc1ccccn1

>  <Percent Effect (%)>
-9.23

$$$$
>  <compound>
O=C(c1cn(-c2cc(N3CCOCC3)ncn2)cn1)N1CCSCC1

>  <Percent Effect (%)>
-5.28

$$$$
>  <compound>
CCn1c(CN(C)C)nnc1C1CCN(Cc2ccccc2)CC1

>  <Percent Effect (%)>
-8.57

$$$$
>  <compound>
COc1cc(N2C[C@@H]3COC[C@]3(COc3cccnc3)C2)ncn1

>  <Percent Effect (%)>
-1.83

$$$$

Lab note: next compound to report on.
Exercise: Can you look up the measured Percent Effect of CC(NC(=O)NCC1(O)CCC1)c1ccc(OCC2CC2)c(F)c1 (centres undefined) for me?
Key: -3.31
